experiment: ATG_TAL_CIS: Attagene CIS-FACTORIAL HepG2 Assay for human TAL Basal Promoter (AID 2282966); conditions: HepG2 Attagene cis-factorial TAL promoter reporter; actives raise or lower the signal;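 further: background control endpoint measuring basal TAL promoter reporter mRNA not a specific factor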
Activity calls are given as the source filed them. How the source made its calls: active means hit-call score of the fitted dose curve at least 0.9, where 1 is the maximum; inactive means score below 0.9.
property-name: outcome

In [3]: df
Out[3]:
                           smiles_structure  property_name  measurement
0  COc1cc(C(C)C)c2c(c1)S(=O)(=O)N(COc1cc(=O)n3cccc(OCCN4CCCCC4)c3n1)C2=O        outcome     inactive
1  O=C(O)c1ccc2c(c1)nc(C(=O)NC1CCN(C3CC3)CC1)n2Cc1cc(-c2ccc(Cl)s2)on1        outcome     inactive
2  CCOc1ccc2[nH]cc(C(=O)NCc3ccccc3)c(=O)c2n1        outcome     inactive
3                                OC(CCl)CCl        outcome     inactive
4                        OCc1c[nH]c2ccccc12        outcome     inactive
5         FC(F)(F)COC(OCC(F)(F)F)OCC(F)(F)F        outcome     inactive
6  FC(F)=C(F)C(F)(F)C(F)(F)C(F)(F)C(F)(F)C(F)(F)C(F)(F)F        outcome     inactive
7                              CCCCCOC(C)=O        outcome     inactive

Prompt: Fill in outcome for record `O=C(O)c1cccc(C(=O)O)c1`
Response: inactive
